Cited source: ChEMBL document CHEMBL1681713

Activity listing for selected molecules.
tested on: Brain; assay: Toxicity in mouse assessed as effect on zinc level in brain per gram of organ at 0.4 mmol/kg, ip qd for 5 days; type: organism-based; conditions: in vivo, 120 h
OUTCOME_MEASURE: Activity (µg/g)

In [3]: df
Out[3]:
                                   molecule  measurement_target  outcome_measure  recorded_measurement
0  CC1(C)SC(C(=O)O)C(C(=O)N[C@@H](CC(N)=O)C(=O)O)S1 (stereo not given in full)               Brain         Activity                 34.95
1  CSCC[C@H](NC(=O)C1SC(C)(C)SC1C(=O)O)C(=O)O (stereo not given in full)               Brain         Activity                 33.66
2  CC1(C)SC(C(=O)O)C(C(=O)N[C@@H](Cc2ccccc2)C(=O)O)S1 (stereo not given in full)               Brain         Activity                 34.51
3  CC(C)C[C@H](NC(=O)C1SC(C)(C)SC1C(=O)O)C(=O)O (stereo not given in full)               Brain         Activity                 32.49
4  CC1(C)SC(C(=O)O)C(C(=O)N[C@@H](CC(=O)O)C(=O)O)S1 (stereo not given in full)               Brain         Activity                  34.8

* * *

tested on: Brain; experiment: Toxicity in mouse assessed as effect on zinc level in brain per gram of organ at 0.4 mmol/kg, ip qd for 5 days; assay type: organism-based; settings: in vivo, 120 h
Examples of compounds with documented Activity follow.
OUTCOME_MEASURE: Activity (µg/g)

In [3]: df
Out[3]:
                                   compound  outcome_measure  reading_unit  recorded_measurement
0  CC1(C)SC(C(=O)O)C(C(=O)N[C@@H](CCC(N)=O)C(=O)O)S1 (stereo not given in full)         Activity          µg/g                 34.68
1  CC[C@H](C)[C@H](NC(=O)C1SC(C)(C)SC1C(=O)O)C(=O)O (stereo not given in full)         Activity          µg/g                    33
2  CC1(C)SC(C(=O)O)C(C(=O)N[C@@H](CCC(=O)O)C(=O)O)S1 (stereo not given in full)         Activity          µg/g                 34.99
3  CC1(C)SC(C(=O)O)C(C(=O)N[C@@H](Cc2c[nH]c3ccccc23)C(=O)O)S1 (stereo not given in full)         Activity          µg/g                 33.04
4  CC(C)[C@H](NC(=O)C1SC(C)(C)SC1C(=O)O)C(=O)O (stereo not given in full)         Activity          µg/g                 34.51

* * *

system: Kidney; assay: Toxicity in mouse assessed as effect on iron level in kidney per gram of organ at 0.4 mmol/kg, ip qd for 5 days; type: organism-based; details: in vivo, 120 h
OUTCOME_MEASURE: Activity (µg/g)

>>> print(df.to_string())
                                   compound  outcome_measure  recorded_measurement
0  CC1(C)SC(C(=O)O)C(C(=O)N[C@@H](CCC(=O)O)C(=O)O)S1 (stereo not given in full)         Activity                 93.97
1  CC1(C)SC(C(=O)O)C(C(=O)N[C@@H](CCC(N)=O)C(=O)O)S1 (stereo not given in full)         Activity                 94.48
2  CSCC[C@H](NC(=O)C1SC(C)(C)SC1C(=O)O)C(=O)O (stereo not given in full)         Activity                 93.88
3  CC1(C)SC(C(=O)O)C(C(=O)N[C@@H](CO)C(=O)O)S1 (stereo not given in full)         Activity                 93.69
4  CC1(C)SC(C(=O)O)C(C(=O)N[C@@H](Cc2ccccc2)C(=O)O)S1 (stereo not given in full)         Activity                 94.82
5  CC1(C)SC(C(=O)O)C(C(=O)N[C@@H](Cc2c[nH]c3ccccc23)C(=O)O)S1 (stereo not given in full)         Activity                 93.07
6  CC1(C)SC(C(=O)O)C(C(=O)NCC(=O)O)S1 (stereo not given)         Activity                  94.4
7  CC(C)[C@H](NC(=O)C1SC(C)(C)SC1C(=O)O)C(=O)O (stereo not given in full)         Activity                 95.56
8  CC1(C)SC(C(=O)O)C(C(=O)N[C@@H](CC(=O)O)C(=O)O)S1 (stereo not given in full)         Activity                 93.98
9  CC(C)C[C@H](NC(=O)C1SC(C)(C)SC1C(=O)O)C(=O)O (stereo not given in full)         Activity                 93.02

* * *

compounds and their reported Activity
system: Liver; assay: Toxicity in mouse assessed as effect on iron level in liver per gram of organ at 0.4 mmol/kg, ip qd for 5 days; assay type: organism-based; details: in vivo, 120 h
OUTCOME_MEASURE: Activity (µg/g)

In [3]: df
Out[3]:
                                   compound  measurement_target  reading_unit  recorded_measurement
0  CC(C)C[C@H](NC(=O)C1SC(C)(C)SC1C(=O)O)C(=O)O (some centres undefined)               Liver          µg/g                 153.8
1  CC1(C)SC(C(=O)O)C(C(=O)N[C@@H](CC(=O)O)C(=O)O)S1 (some centres undefined)               Liver          µg/g                154.86
2  CC1(C)SC(C(=O)O)C(C(=O)N[C@@H](Cc2ccccc2)C(=O)O)S1 (some centres undefined)               Liver          µg/g                154.97
3  CC(C)[C@H](NC(=O)C1SC(C)(C)SC1C(=O)O)C(=O)O (some centres undefined)               Liver          µg/g                155.25

* * *

system: Liver; experiment: Toxicity in mouse assessed as effect on manganese level in liver per gram of organ at 0.4 mmol/kg, ip qd for 5 days; assay type: organism-based; conditions: in vivo, 120 h
# key: entry, value: Activity
OUTCOME_MEASURE: Activity (µg/g)

>>> print(df.to_string())
                                   compound  reading_unit  recorded_measurement
0  CC1(C)SC(C(=O)O)C(C(=O)N[C@@H](Cc2ccccc2)C(=O)O)S1 (stereo not given in full)          µg/g                  1.31
1  CC(C)C[C@H](NC(=O)C1SC(C)(C)SC1C(=O)O)C(=O)O (stereo not given in full)          µg/g                  1.41
2  CC(C)[C@H](NC(=O)C1SC(C)(C)SC1C(=O)O)C(=O)O (stereo not given in full)          µg/g                   1.4
3  CC1(C)SC(C(=O)O)C(C(=O)N[C@@H](CC(=O)O)C(=O)O)S1 (stereo not given in full)          µg/g                  1.35
4  CC1(C)SC(C(=O)O)C(C(=O)O)S1 (stereo not given)          µg/g                  1.36
